- Tested on: Eimeria tenella
- experiment.summary: In vitro antiprotozoal activity using […] bovine kidney host cells infected with Eimeria tenella
- Format: functional
measured.metric: MIC (µg/mL)

1. CCC(=O)CCCCC[C@@H]1NC(=O)[C@H]2CCCCN2C(=O)[C@H]([C@@H](C)CC)NC(=O)[C@H](Cc2c(-c3ccc4c(ccn4C)c3)[nH]c3ccccc23)NC1=O : 0.062
2. CCC(=O)CCCCC[C@@H]1NC(=O)[C@H]2CCCCN2C(=O)[C@H]([C@@H](C)CC)NC(=O)[C@@H](C(=O)Cc2ccccc2)NC1=O : 0.5
3. CCC(=O)CCCCC[C@@H]1NC(=O)[C@H]2CCCCN2C(=O)[C@H]([C@@H](C)CC)NC(=O)[C@@H](C(=O)c2ccc3c(ccn3C)c2)NC1=O : 0.05
4. CCC(=O)CCCCC[C@@H]1NC(=O)[C@H]2CCCCN2C(=O)[C@H]([C@@H](C)CC)NC(=O)[C@H](c2cn(OC)c3ccccc3c2=O)NC1=O : 0.25
5. CCC(=O)CCCCC[C@@H]1NC(=O)[C@H]2CCCCN2C(=O)[C@H]([C@@H](C)CC)NC(=O)[C@H](CC2CN(OC)c3ccc(Br)cc32)NC1=O (some centres not stated) : 0.1
6. CCC(=O)CCCCC[C@@H]1NC(=O)[C@H]2CCCCN2C(=O)[C@H]([C@@H](C)CC)NC(=O)[C@H](Cc2cn(C)c3ccccc23)NC1=O : 0.125
7. CCC(=O)CCCCC[C@@H]1NC(=O)[C@H]2CCCCN2C(=O)[C@H]([C@@H](C)CC)NC(=O)[C@H](c2cnc3ccccc3c2N2CCCCC2)NC1=O : 0.125
8. CCC(=O)CCCCC[C@@H]1NC(=O)[C@H]2CCCCN2C(=O)[C@H]([C@@H](C)CC)NC(=O)[C@H](CC(=O)c2ccccc2[N+](=O)[O-])NC1=O : 0.125
9. CCC(=O)CCCCC[C@@H]1NC(=O)[C@H]2CCCCN2C(=O)[C@H]([C@@H](C)CC)NC(=O)[C@H](Cc2cn(CC)c3ccccc23)NC1=O : 0.05
10. CCC(=O)CCCCC[C@@H]1NC(=O)[C@H]2CCCCN2C(=O)[C@H]([C@@H](C)CC)NC(=O)[C@H](CCOc2ccccc2)NC1=O : 0.25
11. CCC(=O)CCCCC[C@@H]1NC(=O)[C@H]2CCCCN2C(=O)[C@H]([C@@H](C)CC)NC(=O)[C@H](Cc2c[nH]c3ccccc23)NC1=O : 0.031
12. CCC(=O)CCCCC[C@@H]1NC(=O)[C@H]2CCCCN2C(=O)[C@H]([C@@H](C)CC)NC(=O)[C@H](Cc2c(-c3cc(OC)cc(OC)c3)[nH]c3ccccc23)NC1=O : 0.125
13. CCCn1cc(C(=O)[C@H]2NC(=O)[C@H](CCCCCC(=O)CC)NC(=O)[C@H]3CCCCN3C(=O)[C@H]([C@@H](C)CC)NC2=O)c2ccccc21 : 0.125
14. CCC(=O)CCCCC[C@@H]1NC(=O)[C@H]2CCCCN2C(=O)[C@H]([C@@H](C)CC)NC(=O)[C@H](C(=O)c2c[nH]c3ccccc23)NC1=O : 0.125
15. CCC(=O)CCCCC[C@@H]1NC(=O)[C@H]2CCCCN2C(=O)[C@H]([C@@H](C)CC)NC(=O)[C@H](Cc2cn(OC)c3ccc(Br)cc23)NC1=O : 0.5
16. CCC(=O)CCCCC[C@@H]1NC(=O)[C@H]2CCCCN2C(=O)[C@H]([C@@H](C)CC)NC(=O)[C@H](Cc2cn(CN3CCCC3)c3ccccc23)NC1=O : 0.031
17. CCC(=O)CCCCC[C@@H]1NC(=O)[C@H]2CCCCN2C(=O)[C@H]([C@@H](C)CC)NC(=O)[C@H](c2cnc3ccccc3c2Cl)NC1=O : 0.2
18. CCC(=O)CCCCC[C@@H]1NC(=O)[C@H]2CCCCN2C(=O)[C@H]([C@@H](C)CC)NC(=O)[C@H](Cc2cn(OC)c3ccccc23)NC1=O : 0.094
19. CCC(=O)CCCCC[C@@H]1NC(=O)[C@H]2CCCCN2C(=O)[C@H]([C@@H](C)CC)NC(=O)[C@H](Cc2c(Br)[nH]c3ccccc23)NC1=O : 0.015
